meta.source: patent US20240116985A1

- Test system: TCF/LEF luciferase Reporter in DLD1 cells
- protocol details: TCF reporter assay (DLD1 TCF/LEF luciferase reporter, Bright-Glo)
- Assay type: cell-based
- study conditions: absolute IC50; read-out: DLD1 reporter assay Abs IC50
pIC50: −log10 of the molar value.
pIC50 values, listed per item

Some compounds with known pIC50 results, for comparison:
CC(=O)N1CCC[C@]12CC=CCCCC1(CCCC=CCCCOC(=O)N3CC[C@@](C(=O)N[C@@H](Cc4ccccc4Cl)C(=O)N[C@@H](Cc4csc5ccccc45)C(=O)N[C@@H](CCC(N)=O)C(N)=O)(C3)NC(=O)[C@H](CO)NC(=O)[C@H](Cc3ccccc3)NC(=O)[C@H](C)NC(=O)[C@H](C)NC(=O)[C@H](CC(=O)O)NC(=O)[C@H](CC(=O)O)NC1=O)NC(=O)[C@H](CC(C)(C)C)NC(=O)[C@H](CC(=O)O)NC2=O (stereo partly drawn)
< 4.70
CC(=O)N1CCC[C@]12CC=CCCCC1(CCCC=CCCCOC(=O)N3CC[C@@](C(=O)N[C@@H](Cc4ccccc4Cl)C(=O)N[C@@H](Cc4csc5ccccc45)C(=O)N[C@@H](C)CO)(C3)NC(=O)[C@H](CC(N)=O)NC(=O)[C@H](Cc3ccccc3)NC(=O)[C@H](C)NC(=O)[C@H](C)NC(=O)[C@H](CC(=O)O)NC(=O)[C@H](CC(=O)O)NC1=O)NC(=O)[C@H](CC(C)(C)C)NC(=O)[C@H](CC(=O)O)NC2=O (stereo partly drawn)
5.00

Could you now consider this next compound?
Enter recorded pIC50 with TCF/LEF luciferase Reporter in DLD1 cells for CC(=O)N1CCC[C@]12CC=CCCCC1(CCCC=CCCCOC(=O)N3CC[C@@](C(=O)N[C@@H](CC(=O)O)C(=O)N[C@@H](Cc4csc5ccccc45)C(=O)N[C@@H](CCC(N)=O)C(N)=O)(C3)NC(=O)[C@H](CC(N)=O)NC(=O)[C@H](Cc3ccccc3)NC(=O)[C@H](C)NC(=O)[C@H](C)NC(=O)[C@H](CN(CC(=O)O)CC(F)(F)F)NC(=O)[C@H](Cc3ccsc3)NC1=O)NC(=O)[C@H](CC(C)(C)C)NC(=O)[C@H](CC(=O)O)NC2=O (stereo partly drawn) here.
< 4.70
